Numbers sourced from the supplement of paper PMC12592484.

- Test system: CAF#2 (primary prostate cancer-associated fibroblasts of iCAF-like type)
- measurement-description: drug sensitivity score (DSS2, normalised partial AUC of dose-response, 72 h CellTiter-Glo viability) (DSS (dimensionless)); higher = more sensitive (stronger growth inhibition / cytotoxicity); extreme values may be limits of the assay
Assign YES to entries whose drug sensitivity score meets or exceeds 6; assign NO to the rest.

molecule	assay-target	class
O=C(/C=C/c1cccnc1)NCCCCC1CCN(C(=O)c2ccccc2)CC1 [Daporinad] (tested concentration range 0.1-1000 nM)	CAF#2	YES
Cc1[nH]nc(C(F)(F)F)c1Cc1sc2c(c1C(=O)N1C[C@](C)(O)CO1)c(=O)n(C)c(=O)n2C(C)C [AZD3965] (tested concentration range 0.1-1000 nM)	CAF#2	NO
CCCC(CCC)C(=O)O [Valproic acid] (tested concentration range 100-1000000 nM)	CAF#2	NO
CC(=O)N(O)CCCCCNC(=O)CCC(=O)N(O)CCCCCNC(=O)CCC(=O)N(O)CCCCCN [Deferoxamine] (tested concentration range 1-10000 nM)	CAF#2	NO
COCC1(CO)C(=O)C2CCN1CC2 (configuration not stated) [Eprenetapopt] (tested concentration range 1-10000 nM)	CAF#2	NO
CC[C@H](C)C(=O)O[C@H]1C[C@@H](C)C=C2C=C[C@H](C)[C@H](CC[C@@H]3C[C@@H](O)CC(=O)O3)[C@H]21 [Lovastatin] (tested concentration range 1-10000 nM)	CAF#2	NO
COc1cc2c(cc1OCCCN1CCCC1)N=C(N)C21CCC1 [A-366] (tested concentration range 2.5-25000 nM)	CAF#2	NO
C[C@H]1C[C@@H]2[C@H]([C@@H](O)C[C@@]3(C)[C@H]2CC[C@]3(O)C(=O)CO)[C@@]2(C)C=CC(=O)C=C12 [Methylprednisolone] (tested concentration range 1-10000 nM)	CAF#2	NO
COCCNCc1ccc(-c2cc3nccc(Oc4ccc(NC(=S)NC(=O)Cc5ccc(F)cc5)cc4F)c3s2)nc1 [Glesatinib] (tested concentration range 0.2-2500 nM)	CAF#2	NO
O=C(Nc1cccc(NC(=O)c2cccc(O)c2O)c1)c1cccc(O)c1O [MST-312] (tested concentration range 1-10000 nM)	CAF#2	YES
CN1CC[C@H](c2c(O)cc(O)c3c(=O)cc(-c4ccccc4Cl)oc23)[C@H](O)C1 [Alvocidib] (tested concentration range 1-10000 nM)	CAF#2	YES
Nc1nc(OCc2cc(Br)cs2)c2[nH]cnc2n1 [Lomeguatrib] (tested concentration range 1-10000 nM)	CAF#2	NO
COc1cc(Nc2ncc3c(n2)-c2ccc(Cl)cc2C(c2c(F)cccc2OC)=NC3)ccc1C(=O)O [Alisertib] (tested concentration range 1-10000 nM)	CAF#2	YES
Cc1cc(Nc2ncnc3ccc(NC4=NC(C)(C)CO4)cc23)ccc1Oc1ccn2ncnc2c1 [Tucatinib] (tested concentration range 0.2-2500 nM)	CAF#2	NO
CN(CC(=O)N(Cc1ccc(C2CCCCC2)cc1)c1ccc(C(=O)O)cc1)S(=O)(=O)c1c(F)c(F)c(F)c(F)c1F [SH-4-54] (tested concentration range 2.5-25000 nM)	CAF#2	YES
C[C@]1(c2nc3c(C(N)=O)cccc3[nH]2)CCCN1 [Veliparib] (tested concentration range 1-10000 nM)	CAF#2	NO
CNC(=O)c1ccc(N2C(=S)N(c3cnc(C#N)c(C(F)(F)F)c3)C(=O)C23CCC3)cc1F [Apalutamide] (tested concentration range 1-10000 nM)	CAF#2	NO
CC(C)C[C@H](NC(=O)[C@H](CCc1ccccc1)NC(=O)CN1CCOCC1)C(=O)N[C@@H](Cc1ccccc1)C(=O)N[C@@H](CC(C)C)C(=O)[C@@]1(C)CO1 [Carfilzomib] (tested concentration range 0.1-1000 nM)	CAF#2	YES
CC[C@]1(O)C[C@@H]2CN(CCc3c([nH]c4ccccc34)[C@@](C(=O)OC)(c3cc4c(cc3OC)N(C)[C@H]3[C@@](O)(C(=O)OC)[C@H](OC(C)=O)[C@]5(CC)C=CCN6CC[C@]43[C@@H]65)C2)C1 [Vinblastine] (tested concentration range 0.1-1000 nM)	CAF#2	NO
CCS(=O)(=O)Nc1ccc(Oc2ccc(F)cc2F)c(-c2cn(C)c(=O)c3[nH]ccc23)c1 [Mivebresib] (tested concentration range 1-10000 nM)	CAF#2	YES
CCNC(=O)CCC/C=C\C[C@@H]1[C@@H](/C=C/[C@@H](O)CCc2ccccc2)[C@H](O)C[C@@H]1O [Bimatoprost] (tested concentration range 0.6-5500 nM)	CAF#2	NO
